Where these numbers come from: patent US20050004211A1

Exercise: for every item that follows, state its recorded IC50.
system: Colon Cancer cell lines; experiment: NCI full panel screen, panel average; settings: Homo sapiens, read-out: cytotoxicity, average of all Colon Cancer cell lines
Response body: numeric value in µM, unit text excluded.

Incoming: Requested field: IC50. Item: "N#Cc1ccccc1C#CC=CC#Cc1ccccc1N"
Outgoing: 0.47

Incoming: Requested field: IC50. Item: "N#Cc1ccccc1C#CC=CC#Cc1cnccn1"
Outgoing: 7.54

Incoming: Requested field: IC50. Item: "N#Cc1ccccc1C#CC=CC#Cc1ccccn1"
Outgoing: 16.3

* * *

test system: SF-295; conditions: read-out: LC50 SF-295; Table 4
READOUT NAME: CC50

Incoming: Requested field: CC50. Item: "N#Cc1ccccc1C#CC=CC#Cc1cnccn1"
Outgoing: > 100 µM

Incoming: Requested field: CC50. Item: "N#Cc1ccccc1C#CC=CC#Cc1ccccc1N"
Outgoing: 12.4 µM

Incoming: Requested field: CC50. Item: "N#Cc1ccccc1C#CC=CC#Cc1ccccn1"
Outgoing: > 100 µM
